- Tested on: HOP-92 NSCLC
- assay procedure: NCI tumour cell line growth inhibition, 48 h
measure name: TGI

Each of the following entries comes with a recorded value; kindly state TGI for each.
1. CN(CCCNc1ccc2ncn3c4ccccc4c(=O)c1c23)CCCN1C(=O)c2cccc3cc([N+](=O)[O-])cc(c23)C1=O
2. CC(=O)OC[C@H]1[C@@H]2C(CC[C@]13CO3)OC(=O)CC(C)[C@]2(C)CCc1ccoc1 (some centres undefined)
3. CNC=O.[O]=[Ge].[O]=[Ge].[O]=[Ge].[O]=[Ge][OH].[O]=[Ge][OH]
4. COc1ccc(C2CC(=O)c3c(OC)cc(OC)cc3O2)cc1 (centres undefined)
5. COc1ccc(-c2cc3c(nn2)-c2ccccc2C3=O)cc1

Output:
6.39 µM
> 100 µM
> 100 µM
> 100 µM
> 100 µM

###

- Test system: SW-620 colon
- assay procedure: NCI tumour cell line growth inhibition, 48 h
Consider the following compounds; for each one, report its TGI.

Reference set (8 entries):
CC[C@]12C=CCN3CC[C@@]4(c5ccc(OC)cc5N(C)[C@H]4[C@@](O)(C(=O)OC)[C@@H]1OC(C)=O)[C@@H]32 | > 200 µM
Cc1ccc2nc3ccccc3c(C3C4C(=O)N(c5ccc(Br)cc5Cl)C(=O)C4ON3C(C(N)=O)c3ccccc3)c2c1 (centres undefined) | > 25 µM
C=C1C(=O)O[C@H]2[C@H]1CC/C(COC(=O)/C=C\C(=O)NCc1ccc(Cn3c(=O)sn(-c4ccc(C#N)cc4)c3=O)cc1)=C\CC[C@@]1(C)O[C@@H]21 | 1.22 µM
N#Cc1nc(COCCOCc2ccccc2)oc1N | > 100 µM
Cc1cccc(N2C(=O)C(Cl)=C(Cl)C2=O)c1 | > 60.7 µM
O=C(CC(=O)N(C(=O)c1ccccc1)c1ccc(Cl)cc1)N/N=C\c1cc(N=Nc2ccccc2Cl)ccc1O | > 100 µM
S=C1Cc2c([nH]c3ccccc23)-c2ccccc2N1 | > 100 µM
COC1(OC)C2(Cl)CCC1(Cl)C(OC(C)=O)C2 (centres undefined) | > 100 µM

Shifting focus to the compound that follows.
Input: Look up and report measured TGI for this entry: CCC1c2[nH]c3ccccc3c2C[C@H]2C(=O)NC(CCC(=O)OC(C)(C)C)C(=O)N12 (some centres undefined)
Output: > 100 µM

###

- Test system: HCC-2998 colon
- assay procedure: NCI tumour cell line growth inhibition, 48 h
measure name: GI50

Reference set (3 entries):
COC(=O)[C@]12CCC(C)(C)C[C@H]1C1=CC[C@@H]3[C@@]4(C)C/C(=C/c5cccnc5)C(=O)C(C)(C)[C@@H]4CC[C@@]3(C)[C@]1(C)CC2 | 5560 nM
COc1ccc(C(=O)/C=C/c2cccnc2Nc2cc(OC)c(OC)c(OC)c2)cc1 | 1350 nM
CCOC(=O)c1c(C)n(Cc2ccc(OC)cc2)c2c1cc(O)c1[nH]c3c(c12)CCCC3 | 2390 nM

Shifting focus to the compound that follows.
Input: Report the value of GI50 obtained on HCC-2998 colon for COc1ccc(-c2cc3c(nn2)-c2ccccc2C3=O)cc1 .
Output: > 100000 nM

###

- Tested on: CCRF-CEM leukemia
- assay procedure: NCI tumour cell line growth inhibition, 48 h
Consider the following molecules; for each one, report its TGI.

C1=C2C3=[N+](CCCC3)CC2Cc2ccsc21 (configuration not stated) | > 100 µM
O=C(NC1CCCCCC1)C1C(=O)N(C2CCCCCC2)C(=O)/C1=N\O (configuration not stated) | 87.2 µM
Cc1cc(NS(=O)(=O)c2ccc(NC(=O)c3cccc4c(=O)c5ccccc5[nH]c34)cc2)no1 | 94.2 µM
COc1ccc(-n2c(SCc3cc(OC)c(OC)c(OC)c3)nc3ccc(C)cc3c2=O)cc1 | > 100 µM
N#CCCN(CCC#N)c1ccc(C(=O)NN)cc1 | > 100 µM
CSc1ccc(/C=C2/C[N+](C)(C)C/C(=C/c3ccc(SC)cc3)C2=O)cc1 | 31.5 µM

Each of the following entries comes with a recorded value; kindly state TGI for each.
1. CC(C)(C)C1=CC(=CC=C2C=CN(CCCCCCCCCCCO)C=C2)C=C(C(C)(C)C)C1=O
2. COc1ccc(-c2cc3c(nn2)-c2ccccc2C3=O)cc1
3. O=C1C2=C(CC3C(C2)C3(Br)Br)C(=O)C2=C1CC1C(C2)C1(Br)Br (configuration not stated)
4. O=C(c1ccc(Cl)cc1Cl)N(C(=O)N1CCCCC1)c1ccccc1
5. CCOCNC(=O)N(COCC)COCC
6. Cc1cc(=O)[nH]c(NNC(C#N)c2ccc(O)cc2)n1 (configuration not stated)
7. Nc1nc(Cl)cc(NCC2(CO)COC2)n1
8. CCCCn1c(C)c(C(=O)OCC)c2cc(OCc3ccc(C(=O)Nn4c(C)ccc4C)cc3)c(Br)cc21

Output:
1: 11.7 µM; 2: > 100 µM; 3: > 100 µM; 4: > 100 µM; 5: > 100 µM; 6: > 100 µM; 7: > 100 µM; 8: > 100 µM

Each of the following entries comes with a recorded value; kindly state TGI for each.
1. CCN(CC)C(=O)C/C(C)=N/NC(=O)c1ccncc1
2. CCOC(=O)CC(NC(=O)c1nc[nH]c1[N+](=O)[O-])C(=O)OCC (configuration not stated)
3. C=CCNc1ccc(C)cc1
4. Cc1ccc(NC(=O)C2C(=O)N(c3ccc(C)c(C)c3)C(=O)/C2=N/O)cc1C (configuration not stated)

Output:
1. > 100 µM
2. > 100 µM
3. > 100 µM
4. > 100 µM

Each of the following entries comes with a recorded value; kindly state TGI for each.
1. CN(C)C(=S)SN(C)C(=O)Nc1ccccc1
2. CNC(=O)N1CCN(C(=O)NC)CCN(C(=O)NC)CC1

Output:
> 91.1 µM
> 100 µM

Each of the following entries comes with a recorded value; kindly state TGI for each.
1. Cc1ccc2nc3ccccc3c(C3C4C(=O)N(c5ccc(Br)cc5Cl)C(=O)C4ON3C(C(N)=O)c3ccccc3)c2c1 (configuration not stated)
2. CCOC(=O)C(Cl)(NC(=O)c1ccc(F)cc1)C(F)(F)F (configuration not stated)

Output:
1: > 25 µM; 2: > 100 µM

###

Consider the following compounds; for each one, report its TGI.
- Tested on: DMS 273 small cell lung
- assay procedure: NCI tumour cell line growth inhibition, 48 h

CCC1(O)C(=O)OCc2c1cc1n(c2=O)Cc2cc3c(N)cccc3nc2-1 (centres undefined) | 0.209 µM

Each of the following entries comes with a recorded value; kindly state TGI for each.
1. O=C1c2ccccc2S[C@@H](O)[C@@H]2CCCN12
2. CC(=O)OC1CC2OC(Cc3ccccc32)O1 (centres undefined)
3. O=C(CC(=O)N1N=C(c2ccccc2)C(N=Nc2ccc(Cl)cc2)C1=O)Nc1ccccc1Cl (centres undefined)
4. COc1ccc(C(=O)O)c(Cc2cccc3ccccc23)c1
5. CC(=O)NC(CCCN)C(=O)NCc1ccccc1 (centres undefined)

Output:
1: > 100 µM; 2: > 100 µM; 3: > 100 µM; 4: > 100 µM; 5: > 100 µM

Each of the following entries comes with a recorded value; kindly state TGI for each.
1. CC(=O)SCCC1c2[nH]c3ccccc3c2CCN1O (centres undefined)
2. Cc1ccc(C(=O)/C=C/c2ccccc2O)c(C)c1
3. COC(=O)c1cc2c(c(C(=O)OC)c1O)C(=O)C=CC2=O
4. CCCCCCCCCCCCCCCCOP(=O)(O)Oc1ccc(/C=C\c2ccc(OP(=O)(O)OCCCCCCCCCCCCCCCC)cc2)cc1
5. COc1cc(C2c3cc4c(cc3[C@H](OCCN(C)C)[C@@H]3COC(=O)C23)OCO4)cc(OC)c1O (some centres undefined)
6. COC(=O)C1=C(c2ccc3c(c2)OCO3)O[C@H](c2ccc3c(c2)OCO3)[C@H]1COC(C)=O
7. Nc1c(-c2ccc(Br)cc2)[n+]([O-])c2ccccc2[n+]1[O-]

Output:
> 100 µM
> 100 µM
> 71.6 µM
62.4 µM
1.31 µM
> 100 µM
> 100 µM

Each of the following entries comes with a recorded value; kindly state TGI for each.
1. N#CCCN(c1ccc(/C=C2\N=C(c3ccc(Cl)cc3)OC2=O)cc1)S(=O)(=O)c1ccccc1
2. CCc1nc2ccccc2c(=O)n1/N=C(\N=Nc1ccc(Cl)cc1)c1ccccc1Cl

Output:
> 100 µM
> 100 µM

Each of the following entries comes with a recorded value; kindly state TGI for each.
1. CC1=CC(=O)NP(=O)(Oc2ccc(C)cc2)N1 (centres undefined)
2. CCc1cccc(C)c1NC(C)=O
3. COC(=O)C(=O)C(C(=O)C=C(C)C)C(=O)C(=O)Nc1ccc(Cl)cc1C (centres undefined)
4. CNC=O.[O]=[Ge].[O]=[Ge].[O]=[Ge].[O]=[Ge][OH].[O]=[Ge][OH]

Output:
1: > 100 µM; 2: > 100 µM; 3: > 100 µM; 4: > 100 µM
